experiment: yeast display, Sf9 membrane polyspecificity reagent, FACS + sequencing; frameworks hold sequencing errors
outcome-measure: polyreactivity (PSR sort gate)

biosequence=QVQLVESGGGLVQAGGSLRLSCAASGSIFEPNAMGWYRQAPGKERELVAAISSGGSTYYADSVKGRFTISRDNAKNTVYLQMNSLKPEDTAVYYCAAYYHGYYSWGQGTQVTVSS result="high polyreactivity"
biosequence=QVQLVESGGGLVQAGGSLRLSCAASGRIFTVNAMGWYRQAPGKERELVAAISKSGGRTYYADSVKGRFTISRDNAKNTVYLQMNSLKPEDTAVYYCAKRVRTGSVGNFNYWGLGTQVTVSS result="high polyreactivity"
biosequence=QVQLQESDGGLVQAGGSLRLSCAASGSISPQYYMGWYRQAPGKEREFVAISKGTTTYYADSVKGRLTISRVNAKNTVYLQMNSLKPEDTAVYCCAAGRWLQNVHAYWDQGTQVTVSS result="low polyreactivity"
biosequence=QVQLVESGGGLVQAGGSLRLICAASGFTFTQYVMGWYSQAPGKERELVAAINWSGGNTYYAESVKGRFTISRDNAKNTVYLQMNSLKPEDTAVYYCAAYRHRNGYDYWGQGTQVTVSS result="high polyreactivity"
biosequence=QVQIVESGGGLVQAGGSLRLSFAASGSILYINAMGWYRQAPGKERELVAAISWSGDSTNYADSVKGRFTISRDNAKNTVYLQMNSLKPEDTAVYYCNADCDVVGVAHDYWGQGTQVTVSS result="low polyreactivity"
biosequence=QVQLVESGGGLVQAGGSLRLSCAATGRIFNPNAMGWYRQAPGKERELVAAITSGDSTNYADSVKGRFTISRDNAKNTVYLQMNSLKPEDTAVYYCAAGPSYRPPWLRQGGYDYWGQGTQVTVSS result="low polyreactivity"
biosequence=QVQLVESGGGLVQAGGSLRLSCAASGSIYYAMGWYRQAPGKEREFVAAINSGGSTYYADSVKGRFTISRDNAKNTVYIQMNSLKPEDTAVYYCAKPTYRFYWGDFDYWGQGTQVTVSA result="low polyreactivity"
biosequence=QVQLVESGGGLVQAGGSLRLSCAASGRIFSPYAMGWYRQAPGKERELVAAISGRGGRTYYADSVKGRFTISRDNAKNTVYLQMNSLKPEDTAVYYCNRVVSGYPGSDYWGQGTQVTVSS result="high polyreactivity"

QUERY: Consider the sequence QVQLVESGGGLVQAGGSLRLSCAASGSTFGPNTMGWYRQAPGKERELVAAITSTGSTYYADSVKGRFTISRDNGKNTVYFEMNILLPEDTAVYYCAARRYYGVYYAFYYWGQGTQVTVSS and give its measured polyreactivity (PSR sort gate).
RESULT: high polyreactivity

QUERY: Again, but for QVQLVESGGGLVQAGGSLRLSCAATGLIIYRNAMGWYRQAPGKEREFVAAISYSGGSTSYADSVKGRLTISRDNAKNTVYLQMNSLKPEDTAVYYCAVDQSRGWFYLYYYWGQGTQVTVSS
RESULT: low polyreactivity

QUERY: Again, but for QVQLVESGAGLVQAGGSLRVSCAASGLIFAWYAMGWYRQAPGKERELVATIDVSGGTYYADSVKGRFTISRDNAQNTVYLQMNSLNPEDTAVYYCAAGVTYWYDAPEYYYWGQVTQVTVSS
RESULT: high polyreactivity

* * *

test: yeast display, Sf9 membrane polyspecificity reagent, FACS + sequencing; frameworks hold sequencing errors
outcome-measure: polyreactivity (PSR sort gate)

biosequence=QVQLVESGGGLVQAGGSLRLSCAASGSIFGRNAMGWYRQAPGKERELVADIWNGGSTYYADAVKGRFTISRDNAKNTVYLQMNSLKPEDTAVYYCNADADDVGRFGGYIKYDYWGQGTQVTVSS result="low polyreactivity"
biosequence=QVQLVESGGGLVQAGGSLRLSCAASGSNFRGYTMGWYRQAPGKERELVAAISLSGGSTYYADSVKGRFTISRDNAKNTVYLQMNSLKPEDTAVYYCAASLPWYDEFDYWGQGTQVTVSS result="low polyreactivity"
biosequence=QVQLVESGGGLVQAGGSLRLSCAASGSTFTPNDMGWYRQAPGKERELVAAINSGGGRTYYADSVKGRFTISRDNAKNTVYLQMNSLKPEDTAVYYCAKRLYISGYGYGYWGQGTQVTVSS result="high polyreactivity"
biosequence=QVQLVESGGGLVQAGGSLRLSCAASGSIITINAMGWYRQAPGKERELVAAISKRGGSTYYADSVKGRFTISSDNGKHTVYLQLNSLKPEDTAFYYCNAREYIHWRGALGLFGSWGQGTQVNVSS result="high polyreactivity"

Here's the next entry for you.
QUERY: Consider the sequence QVQLVESGGGLVQAGGSLRLSCAASGIIFKGYDMGWYRQAPGKERELVAAISSGSTNYADSVKGRFTISRDNAKNTVYLQMNSLKPEDTAVYYCNKDSISYTWGYDYWGQGTQVTVSS and give its measured polyreactivity (PSR sort gate).
RESULT: low polyreactivity

* * *

assay: yeast display, Sf9 membrane polyspecificity reagent, FACS + sequencing; frameworks hold sequencing errors
outcome-measure: polyreactivity (PSR sort gate)

// solved cases for polyreactivity (PSR sort gate) follow
biosequence=QVQLVESGGGLVQAGGSLRLSCAASGSIFKRNTMGWYRQAPGKERELVAAISASGGRTYYADSVKGRFTISRDNAKNTVYLQMNSLKPEDTAVYYCNARFRIGRSELDYWGQGTQVTVSS outcome_measure="polyreactivity (PSR sort gate)" result="low polyreactivity"
biosequence=QVQLVESGGGLVQAGGSLRLSCAASGSIFYNNAMGWYRQAPGKERELVAAITIGGSTNYADSVKGRFTISRDNAKNTVYLQMNSLKPEDTAVYYCAAGKPGAYRYGSIVRFDHWGQGTQVTVSS outcome_measure="polyreactivity (PSR sort gate)" result="low polyreactivity"
biosequence=QVQLVESGGGLDQAGGSLRLSCAASGFTLHSYALGWYRQAPGKERELVAAITTGGSTYYADSVKGRFTISRDNAKNTVYLQMNSLKPEDTAVYYCAAEDPGPYGGYVYWGQGTQVTVSS outcome_measure="polyreactivity (PSR sort gate)" result="low polyreactivity"
biosequence=QVQLEESGGGLVQAGGSLRLSCAASGRIFSSYAMGWYRQAPGKERELVAAISSSGGRTYYADSVKGRFTISRDNAKNSVYLQMNSLKPEDTAVYYCARVTTGGYEYWGQGTQVTVSS outcome_measure="polyreactivity (PSR sort gate)" result="high polyreactivity"

Here's the next entry for you.
QUERY: Consider the sequence QVQLVESGGGLVQAGGSLRLSCAASGFTFYRYAMGCYRQAPGKERELVAAITSSGGNTYYADSVKGRFTISRDNGKNTVYLQMNSLKPEDTAVYYCAKYTRIRFEYEYWGLGTQVTVSS and give its measured polyreactivity (PSR sort gate).
RESULT: high polyreactivity

* * *

test: yeast display, Sf9 membrane polyspecificity reagent, FACS + sequencing; frameworks hold sequencing errors
outcome-measure: polyreactivity (PSR sort gate)

biosequence=QVQLVESGGGLVQAGGSLRLSCAASGRTFRGYAMGWYRQAPGKERELGAAITSSGGRTYYADSVKGRFTISRDNAKNTVYLQMNSLKPVDTAVYYCAKDYYSPRGYDYWGQGTQVTVSS result="high polyreactivity"
biosequence=QVQLVESGGGLVQAGGSLRLSCAASGRIFRFYAMGWYRQAPGKERELVAAINSRGGSTYYADSVKGRFTISRDNAKNTVYLQMNSLKPEDTAFYYCNARSGFGYGYGYWGQGTQVTVSS result="high polyreactivity"
biosequence=QVKLVESGGGLVQAGGSLRLSCAASGRTFPRYAMGWYRQAPGKERELVAVIYGGGTYYADSVKGRFTISRDNAKNTVYLQMNSLKPEDTSVYYCNARSYQSARFRGGYWGQGTQVTVSS result="high polyreactivity"
biosequence=QVQLVESGGSLVQARGSLRLSCAASGFIFPYYVMGGYRHAPGQERELVAAITCGGITYYAESVKGRFTISRDNAKNTVYFLMTSLKPEDTVVYYCAAENKYFYAWGSFVDDEYWGQGTQVTVSS result="high polyreactivity"

* * *

assay: yeast display, Sf9 membrane polyspecificity reagent, FACS + sequencing; frameworks hold sequencing errors
outcome-measure: polyreactivity (PSR sort gate)

// solved cases for polyreactivity (PSR sort gate) follow
biosequence=QVQLVESGGGLVQAGGSLRLSCAASGSTFQGYAMGWYRQAPGKERELVARISYTGASTYADSVKGRFTISRDNAKNTVYLQMNSLKPDDTAVYYCNAGGYRYRSYDYWGQGTQVTVSS result="high polyreactivity"
biosequence=QVQLVESGGGLVQAGGSLRLSCAASGITFGKNAMVWYRQAPGKEREFDAAISWGGGRTYYADSVKGRFTISRDNAKNTVYLQMNSLKPEDTAVYYCNVGPRAGWYRSNYDYWGQGTQVTVSS result="low polyreactivity"
biosequence=QVQLVESGGGLVQAGGSLRLTCAASGSIFRRNAMGWYRQAPGKERELVAAISWSGGDTYYADSVKGRFTISRDNAKNTVYLQMNSLKPEDTAVYYCAAEYYRPYYGESYDYWGQGTQVTVSS result="high polyreactivity"
biosequence=QVQLVESGGGLVQAGGSRSLSCAASGFTFQGNVMGWYTQAPGKERELVAAISGGGGRTYYADYVKGRFTISRDNAKYTVYLQMNSLIPEDTAVYYCIVRLLGSNRAGVRCDYWGQGTQVTVSS result="high polyreactivity"
biosequence=QVQLVESGGGLVQAGASLRLSCAASGSIFKDNAMGWYRQAPGKERELVAAISWNGGSTYYADSVKGRFTISRDNAKNTVYLHMNSLKPEDTAVYYCATRIYGWSFGSWYKYDYWGQGTQVTVSS result="low polyreactivity"

QUERY: Consider the sequence QVQLVESGGGLVQAGGSLRLSCAASGSIFKVNAMGWYRQAPGKERELVAAISGNTDTTYYADSVKGRFTISRDNAKNTVYLQMNSLKPEDTAVYYCAADAYIKYYFRWINMYYWGQGTQVTVSS and give its measured polyreactivity (PSR sort gate).
RESULT: high polyreactivity

QUERY: Again, but for HVQLVESGGGLVQAGGSLRLSCAASGSIFIGNAMGWYRQAPGKERELVAAISKSDGRTYYADSVKGRFTISRDNAKNTVYLQMNSLKPEDTAVYFCAADAYWEPKVGFSLFDYWGQGTQVTVSS
RESULT: low polyreactivity

QUERY: Again, but for QVQLVESGGGLVQAGGSLRLSCAASGLIFNLYAIGWNRQAPGKEREFVATITGIGGSTYYADSVKGRFTISRDNAMNTVYFQMNSLKPEDTAVYYCAADAWFLPYNYWGQGTQVTVSS
RESULT: low polyreactivity
